Each entry below carries its reported AUC.
- Assay Remarks: Pharmacokinetics assay in rats after intragastrical administration (LC/MS/MS of plasma)
- Format: in vivo
- Experimental Conditions: both sexes, rat, plasma, po, SD rats, 2 mg/kg, read-out: Area under curve AUC

Below are worked cases with known answers.
C[C@@H](NC(=O)c1cnn2c1CN(C(=O)Nc1ccc(F)c(F)c1)CC2)C(F)(F)F [Example 2] :: 9250 ng·h/mL
C[C@@H]1CN(C(=O)Nc2ccc(F)c(C#N)c2)Cc2c(C(=O)N[C@H](C)C(F)(F)F)ncn21 [Example 47] :: 7260 ng·h/mL
C[C@H]1Cn2cnc(C(=O)N[C@H](C)C(F)(F)F)c2CN1C(=O)Nc1ccc(F)c(C#N)c1 [Example 11] :: 10900 ng·h/mL
C[C@@H]1CN(C(=O)Nc2ccc(F)c(C#N)c2)Cc2c(C(=O)N[C@H](C)C(F)(F)F)nnn21 [Example 44] :: 11800 ng·h/mL
C[C@@H](NC(=O)c1cnn2c1CN(C(=O)Nc1cc(F)c(F)c(F)c1)CC2)C(F)(F)F [Example 4] :: 7130 ng·h/mL
C[C@@H](NC(=O)c1ncn2c1CN(C(=O)Nc1cc(F)c(F)c(F)c1)CC2)C(F)(F)F [Example 1] :: 14400 ng·h/mL

Looking up C[C@H]1Cn2ncc(C(=O)N[C@H](C)C(F)(F)F)c2CN1C(=O)Nc1ccc(F)c(F)c1 [Example 7] , I see its AUC listed as 16500 ng·h/mL

Looking up C[C@@H]1CN(C(=O)Nc2ccc(F)c(F)c2)Cc2c(C(=O)N[C@H](C)C(F)(F)F)nnn21 [Example 42] , I see its AUC listed as 7380 ng·h/mL

Looking up C[C@H]1Cn2cnc(C(=O)N[C@H](C)C(F)(F)F)c2CN1C(=O)Nc1ccc(F)c(F)c1 [Example 6] , I see its AUC listed as 12900 ng·h/mL
